Test system: HL-60(TB) leukemia
METHOD_SUMMARY: NCI tumour cell line growth inhibition, 48 h
PARAMETER: TGI

COc1cc2c(cc1OCCCn1c(-c3ccccn3)nc3ccccc31)N=C[C@@H]1CCCN1C2=O	> 24.6 µM
c1cnn2ncc(-c3ccnc(NCCCN4CCOCC4)n3)c2c1	17.7 µM
COc1ccc(C(=O)/C=C/c2ccc(O)c(O)c2)c(OC)c1	2.53 µM

response.value for C[C@@H]1CN(Cc2ccc(F)cc2)[C@@H](C)CN1C(=O)c1cc2c(C(=O)C(=O)N(C)C)cn(C)c2cc1Cl (field: TGI) = 63.2 µM

response.value for O=C1c2ccccc2-c2cc([N+](=O)[O-])c([N+](=O)[O-])cc21 (field: TGI) = 3.97 µM

response.value for COc1cccc(OC)c1C(=O)OCc1ccccc1 (field: TGI) = > 100 µM

response.value for C/C=C1\CN2CCc3c([nH]c4ccccc34)C2CC1C(=O)OC (stereo not drawn) (field: TGI) = > 32.2 µM

response.value for NC(N)=NCC[C@H](NC(=O)OCCCCCn1ccc(=O)[nH]c1=O)C(=O)O (field: TGI) = > 100 µM

response.value for COC(=O)C1(C)CCc2c(OC)ccc(OC)c2C1=O (stereo not drawn) (field: TGI) = > 100 µM

response.value for N#CC1C(=O)NC23CCCCC2C1c1ccccc1O3 (stereo not drawn) (field: TGI) = > 100 µM

response.value for COc1cc(C(=O)C/C(CCC(=O)Nc2ccccc2[N+](=O)[O-])=N\NC(N)=O)ccc1O (field: TGI) = > 100 µM

response.value for COc1ccccc1-c1cc(=O)c2cc(C)cnc2[nH]1 (field: TGI) = 76.2 µM

response.value for C#C[C@]1(O)CCCC2=CC(=O)CC[C@@]21C (field: TGI) = > 100 µM

----------
Test system: A549 NSCLC
METHOD_SUMMARY: NCI tumour cell line growth inhibition, 48 h
PARAMETER: TGI

Check out these entries, answers already filled in.
COC(=O)C1CC2CC(=NNC(N)=O)CC2C1 (configuration not stated)	> 100 µM
CN(N=O)C(=O)ON1C(=O)CCC1=O	> 100 µM
C=CC[C@@H](N)C(=O)N(C)[C@@H](C)[C@@H](O)c1ccccc1	> 100 µM

Known value: A549 NSCLC TGI of the compound COC1C=COC2(C)Oc3c(C)c(O)c4c(c3C2=O)/C(=N/C2CCC(O)OC2C)C=C(NC(=O)/C(C)=C\C(=O)C2CC2C(O)C(C)C(O)C(C)C(OC(C)=O)C1C)C4=O (configuration not stated) equals 11.4 µM

Known value: A549 NSCLC TGI of the compound CN[C@@H](C)C(=O)N[C@H](C(=O)N1CCC[C@H]1C(=O)Nc1sc(-c2ncco2)nc1-c1ccccc1)C1CCCCC1 equals > 100 µM

Known value: A549 NSCLC TGI of the compound CC(=O)/C=C/c1cn(C(=O)OC(C)(C)C)c2ccc(Br)cc12 equals 52.4 µM

Known value: A549 NSCLC TGI of the compound O=C(NC1=C(Cl)C(=O)c2ccccc2C1=O)c1ccc(F)cc1 equals > 100 µM

Known value: A549 NSCLC TGI of the compound CCCCCCCCCCCCCCCCCC1=NCCN1CCOC1=C(Cl)C(=O)c2ccccc2C1=O equals 22.9 µM
